- protocol text: PAMPA permeability
- Format: in vitro ADME
- details: GIT PAMPA at pH 7.4; read-out: PAMPA permeability, Average of P
observable: Papp (×10⁻⁶ cm/s)
Return type: number; implicit unit ×10⁻⁶ cm/s.

[ask] Entry NC/C=C(\F)C(F)(F)S(=O)(=O)c1ccccc1 : reported Papp = ?
[reply] 168

====

- system: Human Fibroblast LOX (Homo sapiens, UniProt P28300)
- Construct: Fibroblast LOX; endogenous in cells; host or cells: human fibroblasts
- Sequence (P28300 169-417): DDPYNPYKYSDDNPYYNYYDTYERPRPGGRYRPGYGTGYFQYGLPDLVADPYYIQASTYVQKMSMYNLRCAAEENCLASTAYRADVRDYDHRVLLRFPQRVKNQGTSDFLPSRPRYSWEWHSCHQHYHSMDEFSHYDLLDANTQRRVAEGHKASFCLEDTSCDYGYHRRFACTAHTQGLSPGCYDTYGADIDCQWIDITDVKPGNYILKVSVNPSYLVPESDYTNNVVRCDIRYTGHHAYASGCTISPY
- protocol text: Amine oxidase inhibition profile, human fibroblast LOX
- Type: biochemical
- details: read-out: Human Fibroblast LOX IC50
Reported IC50 values follow for various compounds
Provide only the numeric value, understood in µM.

Reference set (2 entries):
compound	IC50 [µM]
NC/C=C(\F)C(F)(F)S(=O)(=O)c1ccccc1 [PXS-6302]	4.51
N#CCCN [BAPN, β-aminoproprionitrile, reference compound]	3.04

Next, consider the following compound.
[ask] What measured IC50 goes with NC/C=C(\F)CS(=O)(=O)c1ccccc1 [PXS-4787] ?
[reply] 5.19

====

- system: Human Recombinant SSAO (Homo sapiens)
- Sequence (Q16853 1-763): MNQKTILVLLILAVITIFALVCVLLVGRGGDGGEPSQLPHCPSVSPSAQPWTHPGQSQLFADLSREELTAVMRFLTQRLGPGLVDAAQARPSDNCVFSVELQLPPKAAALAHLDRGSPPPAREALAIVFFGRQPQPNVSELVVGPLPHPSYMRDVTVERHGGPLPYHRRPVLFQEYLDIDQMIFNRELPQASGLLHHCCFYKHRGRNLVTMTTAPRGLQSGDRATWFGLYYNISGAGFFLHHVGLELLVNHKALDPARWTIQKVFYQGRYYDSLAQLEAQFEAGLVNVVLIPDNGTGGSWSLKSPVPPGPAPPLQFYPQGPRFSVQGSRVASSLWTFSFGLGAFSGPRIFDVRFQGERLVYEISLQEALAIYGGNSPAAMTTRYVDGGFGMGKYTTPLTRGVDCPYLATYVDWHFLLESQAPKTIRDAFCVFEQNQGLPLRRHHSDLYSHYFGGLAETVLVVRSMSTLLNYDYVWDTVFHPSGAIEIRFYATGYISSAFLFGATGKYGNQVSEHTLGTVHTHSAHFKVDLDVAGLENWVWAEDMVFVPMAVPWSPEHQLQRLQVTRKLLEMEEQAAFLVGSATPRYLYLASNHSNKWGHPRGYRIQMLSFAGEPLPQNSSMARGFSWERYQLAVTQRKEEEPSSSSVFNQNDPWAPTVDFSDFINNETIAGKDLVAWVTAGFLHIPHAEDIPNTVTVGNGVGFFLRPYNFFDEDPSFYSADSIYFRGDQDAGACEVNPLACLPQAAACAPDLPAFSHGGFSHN
- protocol text: Compound oxidation assay (substrate propensity) by SSAO
- Type: biochemical
- details: single concentration 30 µM
observable: Oxidation by SSAO (hydrogen peroxide generated relative to DMSO)
Enter a number only.

compound	result value
NC/C(=C/F)CCc1ccc(F)cc1 [Mofegiline, mofegiline, reference compound]	1.0

[ask] Bench note: what Oxidation by SSAO (hydrogen peroxide generated relative to DMSO) did NC/C=C(\F)CN1CCc2ccccc21 show?
[reply] 2.6

[ask] Moving on to NCC(=CF)COc1ccccc1
[reply] 1.1

[ask] // repeat for NC/C=C(\F)C(F)(F)S(=O)(=O)c1ccccc1 and report
[reply] 1.3

[ask] Now this one: NC/C=C(\F)CNc1ccccc1
[reply] 5.5

[ask] Then what about the compound NC/C=C(\F)CS(=O)(=O)c1ccccc1 ?
[reply] 1.3

[ask] Likewise for NC/C=C(\F)CSc1ccccc1 ?
[reply] 68

[ask] And the next one, NC/C=C(/F)COc1ccccc1 ?
[reply] 12.0

[ask] Try the compound NC/C(=C\F)COc1ccccc1
[reply] 1.1
